# system: Mitogen-activated protein kinase kinase kinase kinase 4 (Homo sapiens)
# Sequence (O95819 whole entry): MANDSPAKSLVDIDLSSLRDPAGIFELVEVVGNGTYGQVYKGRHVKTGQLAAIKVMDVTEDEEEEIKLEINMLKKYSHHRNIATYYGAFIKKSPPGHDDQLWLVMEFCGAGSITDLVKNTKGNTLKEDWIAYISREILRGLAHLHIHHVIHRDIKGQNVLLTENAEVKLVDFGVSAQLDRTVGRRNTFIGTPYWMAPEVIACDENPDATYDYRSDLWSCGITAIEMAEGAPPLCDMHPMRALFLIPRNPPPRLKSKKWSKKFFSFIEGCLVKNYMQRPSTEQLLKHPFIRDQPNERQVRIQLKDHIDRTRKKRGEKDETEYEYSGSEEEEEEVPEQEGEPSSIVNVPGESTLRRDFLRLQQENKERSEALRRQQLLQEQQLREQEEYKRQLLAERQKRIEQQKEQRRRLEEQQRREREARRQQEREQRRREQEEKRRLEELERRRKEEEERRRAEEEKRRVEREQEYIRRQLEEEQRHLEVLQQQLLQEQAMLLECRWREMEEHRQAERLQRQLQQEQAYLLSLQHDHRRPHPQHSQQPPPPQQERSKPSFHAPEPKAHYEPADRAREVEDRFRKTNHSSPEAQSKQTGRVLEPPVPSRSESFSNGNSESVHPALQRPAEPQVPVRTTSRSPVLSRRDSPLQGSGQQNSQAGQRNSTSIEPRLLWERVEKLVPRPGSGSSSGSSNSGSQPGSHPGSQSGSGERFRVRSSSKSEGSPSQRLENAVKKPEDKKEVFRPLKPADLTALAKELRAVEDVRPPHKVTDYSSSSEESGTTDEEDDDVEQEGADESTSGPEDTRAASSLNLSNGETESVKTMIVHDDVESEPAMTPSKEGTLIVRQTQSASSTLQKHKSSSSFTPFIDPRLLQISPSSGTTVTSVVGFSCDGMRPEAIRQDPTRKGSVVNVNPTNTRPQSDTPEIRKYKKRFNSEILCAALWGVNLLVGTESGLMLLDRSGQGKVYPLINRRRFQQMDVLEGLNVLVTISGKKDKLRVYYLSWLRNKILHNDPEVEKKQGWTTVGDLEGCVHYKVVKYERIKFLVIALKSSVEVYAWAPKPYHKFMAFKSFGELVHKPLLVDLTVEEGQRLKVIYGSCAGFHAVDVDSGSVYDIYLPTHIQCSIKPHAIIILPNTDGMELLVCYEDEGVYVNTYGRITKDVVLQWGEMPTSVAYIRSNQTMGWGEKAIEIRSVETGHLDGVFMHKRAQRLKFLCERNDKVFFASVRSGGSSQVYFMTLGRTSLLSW
# Format: functional
Active and inactive are the calls of the source.
Log the outcome using a class from active, inactive

// return assay outcome for Nc1c(-c2ccc(NC(=O)Nc3cccc(C(F)(F)F)c3)cc2)cnc2c(-c3ccc4c(c3)OCO4)cnn12
inactive

// return assay outcome for COCC(C)Nc1cc(-c2c[nH]c3ncccc23)cc(Cl)n1 (centres undefined)
active

Assay result, entry c1ccc(Cn2cc(-c3ccc4[nH]nc(-c5ccccc5)c4c3)nn2)cc1 — outcome?
active

Which result was noted for this compound in the test: O=C(Nc1cc(-c2c[nH]c3ncccc23)cc(Cl)n1)c1ccccc1
active

* * *

# assayExplanation: Trypanosoma cruzi growth suppression in host cells – NIH3T3 host cells, beta-gal luminescence, confirmation (AID 2044);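 note: intracellular parasites grown in NIH/3T3 mouse fibroblasts as host cells; luminescent beta-galactosidase reporter signal from transgenic T. cruzi replicating inside host cells; inhibitors lower the luminescence signal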
# Type: functional, cell-based
Activity calls are given as the source filed them.
measuredAttribute: EC50

These recorded examples may help you get a feel for the data.
{"molecule": "O=C(Nc1ccc2c(c1)OCO2)c1cc(-c2ccc(O)cc2)on1", "endpointResult": "< 100 nM (active)"}
{"molecule": "O=C(Nc1cccc(Cl)c1)Nc1cc(S(=O)(=O)N2CCCCC2)ccc1Cl", "endpointResult": "1910 nM (active)"}
{"molecule": "CC1CC2=C(N=C(S)NC2c2cccc(F)c2)/C(=C/c2cccc(F)c2)C1 (centres undefined)", "endpointResult": "1830 nM (active)"}
{"molecule": "N=C(NOC(=O)COc1ccc2ccccc2c1Br)c1ccncc1", "endpointResult": "2840 nM (active)"}
{"molecule": "C=CCn1c(O)c(N=NC(=S)Nc2cccc(C)c2)c2ccccc21", "endpointResult": "558 nM (active)"}

Now look at this one.
Kindly indicate its recorded EC50. Item: Cc1c(Cl)c([N+](=O)[O-])nn1CCCC(=O)N(Cc1ccccc1)Cc1ccccc1
1860 nM (active)
